Tested on: T98 g, MDA231 and sknmc cells
ASSAY_METHOD_TEXT: Killing of cell lines lacking CB1/CB2 (sensitivity profile)
Format: cell-based, human
RUN_CONDITIONS: Homo sapiens; range over the three cell lines (FIG. 1); read-out: potency at killing T98 g, MDA231 and sknmc cells
pEC50: −log10 of the molar value.

{"SUBSTANCE_SMILES": "Cc1c(C(=O)c2cccc3ccccc23)c2cccc3c2n1[C@@H](CN1CCOCC1)CO3", "pEC50": "5.54 to 5.82"}
